experimental-details: qHTS assay for small molecules that induce genotoxicity in human embryonic kidney cells expressing luciferase-tagged ATAD5 (AID 651632); also: nearly all actives have a fitted effect of over 15% in size
stated-conditions: HEK293T ATAD5-luciferase induction, 16 h; series mostly up to 83.3 µM
Records with an inconclusive call do not appear. Active and inactive are the calls of the source. Calls follow the shape of the dose curve; as a rule, active = well fitted activation curve with a large enough effect in the repeat runs; inconclusive = weak or mixed curves; inactive = no such curve, though single readings can be large or run the other way.
Respond using exactly one of the listed classes: active, inactive

// param item: CC(=O)Nc1ccn(C2COC(COC(=O)c3ccccc3)O2)c(=O)n1 (stereo not given) ; yields the recorded call
inactive

Entry O=C(O)CCc1nc2ccccc2[nH]1 : call = ?
inactive

Please indicate how the test categorized CCCC1CCCC(=O)O1 (stereo not given) .
inactive

Please share the test call associated with CC(C)Oc1ccccc1O .
inactive

Query: recorded result category for O=C(O)c1c2ccccc2cc2ccccc12 in this test
inactive

Check the results log: what was the call for CNc1ccccc1 ?
inactive

Dear all, I need the recorded test outcome for O=C(O)c1cccnc1Nc1cccc(C(F)(F)F)c1 , thank you.
inactive

Record request — test call for CC(CN=Cc1ccccc1O)N=Cc1ccccc1O (stereo not given)
inactive

Please share the test call associated with O=C(Nc1ccccc1)c1cc([N+](=O)[O-])ccc1Cl .
inactive

Kindly provide the recorded test outcome for the following molecule: OCCCO
inactive

Recorded test call requested for Cc1ccc2c(Cl)cc(Cl)c(O)c2n1
active

I'd appreciate the recorded outcome for Cc1nc2sccn2c(=O)c1CCN1CCC(=C(c2ccc(F)cc2)c2ccc(F)cc2)CC1 from this test.
inactive

What did this assay record as the result for O=C(O)c1cccc(C(=O)O)c1C(=O)O ?
inactive

I would be grateful if you could indicate the recorded call for C=CC(=O)OCCCCCCCCCC .
inactive

Hello, I am checking results. What call was entered for CCOc1cc(OCC)c(C(C)=O)cc1OCC ?
inactive

Hi team, can someone confirm the assay call for COC(=O)C(C)(C)C ?
inactive

Record request — test call for CC(=O)c1cccnc1
inactive

Hi, do you know how CCCCCC1CCC(=O)O1 (stereo not given) came out in this test?
inactive

Please state the recorded outcome for this molecule: O=C(O)c1cc(C(=O)O)cc([N+](=O)[O-])c1
inactive

Please indicate how the test categorized CCCCCCCCCCCCSCCOCCO .
inactive

Lab log entry: O=C1CCCN1CCO — outcome as called in the assay?
inactive

Can you look up the reported call for CCCCCO for me?
inactive

Record lookup: outcome of this test for CC1=C(C)C(=O)C(C(CCCCCC(=O)O)c2ccccc2)=C(C)C1=O (stereo not given) ?
inactive

What call does the record list for CC1(COc2ccc(CC3SC(=O)NC3=O)cc2)CCCCC1 (stereo not given) ?
inactive

Answer briefly: the call reported for COC(=O)c1cc(Cl)ccc1[N+](=O)[O-] in this assay.
inactive

----------
experimental-details: qHTS assay for identifying genotoxic compounds that show differential cytotoxicity against isogenic chicken DT40 cell lines with known DNA damage response pathways - Rad54/Ku70 mutant cell line (AID 743015); also: nearly all actives have a fitted effect of over 60% in size
stated-conditions: DT40 Rad54/Ku70 mutant viability, CellTiter-Glo, 40 h; series mostly up to 66.8 µM
Results filed as inconclusive are left out. Activity calls are given as the source filed them. Calls come from the whole dose curve; as a rule, active = well fitted cell-killing curve with a large enough effect in the repeat runs; inconclusive = weak or mixed curves; inactive = no such curve, though single readings can be large or run the other way.
Would you mind answering with one of these outcomes? 1 (active), 0 (inactive)

Assay outcome for Nc1ccc(-c2ccc(F)cc2)cc1 : what was it?
1

In this assay, the call recorded for CC(C)CCCCCOC(=O)CS was what?
1

Answer briefly: the call reported for Oc1ccc(Oc2ccccc2)cc1 in this assay.
1

Call for entry O=Cc1ccc(Cl)c([N+](=O)[O-])c1 :
1

Entry c1ccc(CN(Cc2ccccc2)Cc2ccccc2)cc1 : call = ?
0

Please indicate how the test categorized Cc1ccc(NC=O)c(C)c1 .
0
